Test system: test plant species
assay_procedure: Post-emergent herbicidal activity test (greenhouse, foliar spray, visual growth reduction)
Assay type: in vivo
run_conditions: post-emergence, 336 h, ALOMY: blackgrass (Alopecurus myosuroides), 140 g ai/ha, 14 days after application, read-out: Visual Growth Reduction (%) 14 Days After Application, ALOMY
From the text: Post-emergent Test: Seeds or nutlets of the desired test plant species were planted in Sun Gro Metro-Mix® 360 planting mixture, which typically has a pH of 6.0 to 6.8 and an organic matter content of about 30 percent, in plastic pots with a surface area of 64 square centimeters. In some aspects, to ensure good germination and healthy plants, a fungicide treatment and/or other chemical or physical treatment was applied. […]
readout_name: pest or weed control at 140 g/ha

>>> df
                                smiles_data                      readout_name  recorded_value
0  COC(=O)c1nc(-c2ccc(Cl)c(OC)c2F)cc(Cl)c1Cl  pest or weed control at 140 g/ha        0 to 29%
1  COC(=O)c1nc(-c2ccc(C(F)(F)F)cc2Cl)c(C)cc1Cl  pest or weed control at 140 g/ha        0 to 29%
2         COC(=O)c1nc(-c2ccc(Cl)cc2Cl)ccc1C  pest or weed control at 140 g/ha        0 to 29%
3  COC(=O)c1nc(-c2ccc(C(F)(F)F)cc2C#N)ccc1Cl  pest or weed control at 140 g/ha        0 to 29%
4  COC(=O)c1nc(-c2ccc(C(F)(F)F)cc2Cl)cc(C#N)c1Cl  pest or weed control at 140 g/ha        0 to 29%
5  O=C(O)c1nc(-c2ccc(SC(F)(F)F)cc2Cl)c(Cl)cc1Cl  pest or weed control at 140 g/ha        0 to 29%
6    COC(=O)c1nc(-c2ccc(C(F)(F)F)nc2)ccc1Cl  pest or weed control at 140 g/ha        0 to 29%
7  COC(=O)c1nc(-c2ccc(C(F)(F)C(N)=O)cc2Cl)ccc1Cl  pest or weed control at 140 g/ha        0 to 29%
8  COC(=O)c1nc(-c2ccc(C(F)(F)F)cc2Cl)ncc1Cl  pest or weed control at 140 g/ha        0 to 29%
9   COC(=O)c1nc(-c2ccc3[nH]ccc3c2)c(F)cc1Cl  pest or weed control at 140 g/ha        0 to 29%
